Reported pKd values for the following compounds.
Molecular target: galectin-9C (C-terminal domain) (Homo sapiens, UniProt O00182)
Construct: galectins (N = N-terminal domain, C = C-terminal domain); made in house
Sequence (O00182 227-355 limits assumed): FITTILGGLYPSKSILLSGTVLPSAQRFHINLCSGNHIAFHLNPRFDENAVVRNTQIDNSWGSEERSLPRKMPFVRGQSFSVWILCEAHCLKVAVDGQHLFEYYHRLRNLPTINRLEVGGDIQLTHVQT
Test: Competitive fluorescence polarization assay, galectin-9C
Assay type: binding
Details: mean ± SEM of n = 4–8
pKd: −log10 of the molar value.

// worked examples, pKd included
>  <STRUCTURE_SMILES_STRING>
Cn1c(CO[C@@H]2C=CO[C@H](CO)[C@@H]2O)nc2cc(C(=O)O)ccc21

>  <EXPERIMENTAL_SYSTEM>
galectin-9C (C-terminal domain) (Homo sapiens, UniProt O00182)

>  <pKd>
< 2.82

$$$$
>  <STRUCTURE_SMILES_STRING>
COC(=O)c1ccc2nc(CO[C@@H]3C=CO[C@H](CO)[C@@H]3O)[nH]c2c1

>  <EXPERIMENTAL_SYSTEM>
galectin-9C (C-terminal domain) (Homo sapiens, UniProt O00182)

>  <pKd>
< 2.82

$$$$
>  <STRUCTURE_SMILES_STRING>
O=C(O)c1ccc2ccc(CO[C@@H]3C=CO[C@H](CO)[C@@H]3O)nc2c1

>  <EXPERIMENTAL_SYSTEM>
galectin-9C (C-terminal domain) (Homo sapiens, UniProt O00182)

>  <pKd>
< 2.82

$$$$
>  <STRUCTURE_SMILES_STRING>
OC[C@H]1OC=C[C@@H](O)[C@H]1O

>  <EXPERIMENTAL_SYSTEM>
galectin-9C (C-terminal domain) (Homo sapiens, UniProt O00182)

>  <pKd>
2.32

$$$$
>  <STRUCTURE_SMILES_STRING>
Cn1c(CO[C@@H]2C=CO[C@H](CO)[C@@H]2O)nc2ccc(C(=O)O)cc21

>  <EXPERIMENTAL_SYSTEM>
galectin-9C (C-terminal domain) (Homo sapiens, UniProt O00182)

>  <pKd>
< 2.82

$$$$

Qu. Reported pKd, compound O=C(O)c1ccc2nc(CO[C@@H]3C=CO[C@H](CO)[C@@H]3O)[nH]c2c1 : ____
Ans. 2.60
